assay: Compound was evaluated for its inhibitory activity against Serine protease chymotrypsin
Attribute Measured: Ki
Write the quantity with the unit trailing the number.

# Compound, Ki
records = [
    ("CC1CNc2c(cccc2S(=O)(=O)N[C@@H](Cc2nc3ccccc3s2)C(=O)N2CCC(CCO)CC2)C1 (some centres not stated)", "7.55 µM"),
]

Memo: CCC1CCN(C(=O)C(Cc2nc3ccccc3s2)NS(=O)(=O)c2cccc3c2NCC(C)(C)C3)CC1 (configuration not stated) , reported Ki: 4.91 µM

Reference for the values: BindingDB's records for doi:10.1016/s0960-894x(00)00282-1
